Target: T1, soluble human CD3 epsilon chain (human, UniProt P07766 23-126)
T1 construct: also called CD3ε
T1 sequence (P07766 23-126 limits assumed): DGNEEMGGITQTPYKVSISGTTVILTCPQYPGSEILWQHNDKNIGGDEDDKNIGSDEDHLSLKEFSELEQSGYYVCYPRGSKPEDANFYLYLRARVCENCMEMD
Experiment: SPR
Give measured pKd for each item. Keep answers brief.
Numbers only, as −log10 of the molar value.

* TR01H040-E22Hh/none-Hi-Kn010G3/L0212-k0 (antibody, V domains shown, one-arm) VH: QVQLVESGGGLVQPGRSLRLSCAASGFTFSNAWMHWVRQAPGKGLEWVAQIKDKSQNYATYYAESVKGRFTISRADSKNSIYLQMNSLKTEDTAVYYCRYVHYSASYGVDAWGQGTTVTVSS VL: DIVMTQSPLSLPVTPGEPASISCRPSQSPVHSNRNTYLHWYQQKPGQAPRLLIYKVSNRFSGVPDRFSGSGSGTDFTLKISRVEAEDVGVYYCYQGTQVPYTFGQGTKLEIKR | 8.66

# next binder below
// query pKd value for entry TR01H040-E22Hh/none-Hi-Kn010G3/L0207-k0 (antibody, V domains shown, one-arm) VH: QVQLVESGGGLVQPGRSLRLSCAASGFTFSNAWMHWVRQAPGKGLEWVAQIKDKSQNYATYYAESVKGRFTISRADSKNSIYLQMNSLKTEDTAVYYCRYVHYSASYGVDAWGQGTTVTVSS VL: DIVMTQSPLSLPVTPGEPASISCRSSQSPVHSNRNTYLHWYQQKPGQAPRLLIYKVSNRFRGVPDRFSGSGSGTDFTLKISRVEAEDVGVYYCYQGTQVPYTFGQGTKLEIK
8.59
